Assay: Cytotoxicity against human […] cells at 10 uM after 24 hrs by MTT assay
Format: cell-based
readoutKind: Activity

substanceSmiles	assayValue
CN(C)c1ccc(/C=C/C(=N/NC(=N)N)c2ccccc2)cc1	Non-toxic
N=C(N)N/N=C(/C=C/c1ccccc1)c1ccccc1	Non-toxic
CN(C)c1ccc(/C=C/C(=N/NC(=N)N)c2ccc([N+](=O)[O-])cc2)cc1	Non-toxic
COc1ccc(/C=C/C(=N/NC(=N)N)c2ccc([N+](=O)[O-])cc2)cc1OC	Non-toxic
COc1ccc(/C=C/C(=N/NC(=N)N)c2cccc(Br)c2)cc1OC	Non-toxic

Answer for every listed entry: what is its Activity? The entries follow.
1. N=C(N)N/N=C(/C=C/c1cccc([N+](=O)[O-])c1)c1ccc(Cl)cc1Cl
2. N=C(N)N/N=C(/C=C/c1cccc([N+](=O)[O-])c1)c1ccc([N+](=O)[O-])cc1
3. N=C(N)N/N=C(/C=C/c1ccccc1)c1ccc(Cl)cc1
4. N=C(N)N/N=C(/C=C/c1cccc([N+](=O)[O-])c1)c1cccc(Br)c1

[out]
Non-toxic
Non-toxic
Non-toxic
Non-toxic
